- systemUnderTest: rat mGluR5 (Rattus norvegicus)
- Sequence (P31424 21-1203): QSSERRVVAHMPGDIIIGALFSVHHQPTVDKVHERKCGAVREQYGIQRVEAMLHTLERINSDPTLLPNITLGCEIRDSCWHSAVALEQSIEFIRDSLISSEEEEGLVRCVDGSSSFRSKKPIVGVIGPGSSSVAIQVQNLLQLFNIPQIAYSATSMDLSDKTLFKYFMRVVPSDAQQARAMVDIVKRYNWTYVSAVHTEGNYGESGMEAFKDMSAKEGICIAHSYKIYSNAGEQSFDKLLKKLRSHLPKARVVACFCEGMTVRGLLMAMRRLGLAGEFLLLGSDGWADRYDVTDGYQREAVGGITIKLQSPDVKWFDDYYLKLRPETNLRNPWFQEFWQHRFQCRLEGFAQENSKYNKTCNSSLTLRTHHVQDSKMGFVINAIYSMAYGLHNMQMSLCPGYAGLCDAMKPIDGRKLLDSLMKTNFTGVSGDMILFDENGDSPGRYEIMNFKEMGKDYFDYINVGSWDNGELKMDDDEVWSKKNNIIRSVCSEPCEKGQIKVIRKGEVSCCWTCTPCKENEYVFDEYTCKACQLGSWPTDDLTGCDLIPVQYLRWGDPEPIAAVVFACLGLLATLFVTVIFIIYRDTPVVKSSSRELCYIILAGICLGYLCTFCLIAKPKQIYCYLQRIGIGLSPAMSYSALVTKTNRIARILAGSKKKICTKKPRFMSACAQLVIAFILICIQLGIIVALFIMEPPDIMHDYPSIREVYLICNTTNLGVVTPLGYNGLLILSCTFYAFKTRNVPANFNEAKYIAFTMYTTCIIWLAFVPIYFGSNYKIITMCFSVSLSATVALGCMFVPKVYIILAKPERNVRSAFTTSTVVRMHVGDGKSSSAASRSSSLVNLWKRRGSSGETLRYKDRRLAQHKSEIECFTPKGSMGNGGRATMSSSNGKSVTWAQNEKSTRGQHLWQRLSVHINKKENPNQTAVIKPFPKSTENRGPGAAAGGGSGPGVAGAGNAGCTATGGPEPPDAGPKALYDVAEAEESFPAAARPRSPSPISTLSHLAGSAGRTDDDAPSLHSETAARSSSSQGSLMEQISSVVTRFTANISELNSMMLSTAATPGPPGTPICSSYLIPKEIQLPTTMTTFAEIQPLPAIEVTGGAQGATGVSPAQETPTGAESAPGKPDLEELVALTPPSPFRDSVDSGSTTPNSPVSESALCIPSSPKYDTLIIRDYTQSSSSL
- assayName: Potentiation of glutamate response, calcium fluorescence (FDSS) in HEK cells transfected with rat mGluR5
- conditionSummary: HEK cells transfected with rat mGluR5; EC20 concentration of glutamate; read-out: mGluR5 Potentiator EC50
So I've got a bunch of compounds here, and I need their pEC50 values.
Scale for pEC50: -log10 of concentration given in mol/L; no unit attached.

Observed pEC50, rat mGluR5 (Rattus norvegicus), CCCCN1CCc2cc(C#Cc3ccccc3)ccc2C1=O [VU000070] : 7.02

Observed pEC50, rat mGluR5 (Rattus norvegicus), O=C(CN1CCc2cc(C#Cc3ccccc3)ccc2C1=O)OCc1ccccc1 [VU000072] : 7.11

Observed pEC50, rat mGluR5 (Rattus norvegicus), CCOC(=O)C(CC)N1CCc2cc(C#Cc3ccccc3)ccc2C1=O (stereo not drawn) [VU000073] : 7.06
